test system: MDAMB468; assay: cell proliferation (confluence) relative to DMSO control; higher = less growth inhibition; settings: 5 uM; 6 d
Label Not fulfilled if cell proliferation falls below 50%; label Fulfilled in every other case.

>>> df
                                test_smiles  class_assignment
0       CC(C)Oc1ccc(-c2c[nH]cc2CN(C)CCO)cc1     Not fulfilled
1  COc1cc(-c2cn(C)c(=O)c3cnccc23)c(OC)cc1CN(C)C         Fulfilled
2  CCCOc1ccn2c(C(C)=O)cc(-c3ccccc3S(C)(=O)=O)c2c1         Fulfilled
3  CC[C@H](C)n1cc(C)c2c(C(=O)NCc3c(C)cc(C)[nH]c3=O)cc(-c3ccc(N4CCNCC4)nc3)cc21     Not fulfilled
4  COc1ccccc1S(=O)(=O)Nc1ccc2c(c1)CN(C)C(=O)N2     Not fulfilled
5        O=C(NCC(=O)N1CCCC1)Nc1ccc2cnccc2c1     Not fulfilled
6  CCN(C(=O)CO)[C@H]1CN(/C(=N\C#N)Nc2cccc(OC(F)F)c2)N=C1c1ccc(Cl)c(Cl)c1         Fulfilled
7  Cc1cc(=O)n(C)c2cc(N3C(=O)CC[C@H](NS(=O)(=O)CC(C)C)[C@H]3c3ccc(Cl)cc3)ccc12         Fulfilled

The values you see were collected from the supplement of paper PMC9337992.
